assay.overview: self-splicing fitness, log relative to wild type (ln ratio); higher = more splicing; Tetrahymena group I intron in knt gene, E. coli kanamycin selection, DiMSum; sequences stand for … in CUCUCU…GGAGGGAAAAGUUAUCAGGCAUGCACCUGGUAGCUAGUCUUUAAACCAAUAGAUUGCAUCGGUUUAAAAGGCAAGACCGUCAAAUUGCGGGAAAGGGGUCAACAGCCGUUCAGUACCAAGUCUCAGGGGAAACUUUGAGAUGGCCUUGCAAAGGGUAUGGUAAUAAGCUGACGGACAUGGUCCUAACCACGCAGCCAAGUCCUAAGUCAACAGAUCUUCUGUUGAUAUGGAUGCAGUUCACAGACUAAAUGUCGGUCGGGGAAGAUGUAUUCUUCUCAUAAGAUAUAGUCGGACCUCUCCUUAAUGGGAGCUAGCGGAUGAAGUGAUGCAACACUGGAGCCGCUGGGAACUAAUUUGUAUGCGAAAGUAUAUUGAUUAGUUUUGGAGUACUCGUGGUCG;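 further: selection with 25 µg/mL kanamycin versus none on LB agar overnight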
test.settings: 30 °C
Catalogue of self-splicing fitness (ln) values
measurement.type: self-splicing fitness (ln)

>>> observed_measurement("CUUUAGCAAUAUUACGCUAG")
-3.45
>>> observed_measurement("GGGGAGCAAUAUUACGCCGA")
-2.05
>>> observed_measurement("ACGAAGCAAUAUUACGCCUA")
-1.93
>>> observed_measurement("CGGAAGCAAUAUUACGAUUU")
-3.62
>>> observed_measurement("CUAUAGCAAUAUUACGGGUA")
-2.54
>>> observed_measurement("AUCGAGCAAUAUUACGUGUC")
-3.76
>>> observed_measurement("UAUUAGCAAUAUUACGAGUU")
-2.88
>>> observed_measurement("UACUAGCAAUAUUACGGUCC")
-1.59
>>> observed_measurement("CUAUAGCAAUAUUACGAACC")
-2.11
>>> observed_measurement("AAAGAGCAAUAUUACGAGUU")
-3
>>> observed_measurement("AUGGAGCAAUAUUACGAACU")
-1.95
>>> observed_measurement("UAUAAGCAAUAUUACGGACA")
-0.702
>>> observed_measurement("AUUUAGCAAUAUUACGGCUU")
-0.173
>>> observed_measurement("ACGAAGCAAUAUUACGCUUG")
-1.4
>>> observed_measurement("AUUUAGCAAUAUUACGCGAA")
-3.01
>>> observed_measurement("AAUUAGCAAUAUUACGAUCC")
-0.705

* * *

Catalogue of self-splicing fitness (ln) values
assay.overview: self-splicing fitness, log relative to wild type (ln ratio); higher = more splicing; Tetrahymena group I intron in knt gene, E. coli kanamycin selection, DiMSum; sequences stand for … in CUCUCU…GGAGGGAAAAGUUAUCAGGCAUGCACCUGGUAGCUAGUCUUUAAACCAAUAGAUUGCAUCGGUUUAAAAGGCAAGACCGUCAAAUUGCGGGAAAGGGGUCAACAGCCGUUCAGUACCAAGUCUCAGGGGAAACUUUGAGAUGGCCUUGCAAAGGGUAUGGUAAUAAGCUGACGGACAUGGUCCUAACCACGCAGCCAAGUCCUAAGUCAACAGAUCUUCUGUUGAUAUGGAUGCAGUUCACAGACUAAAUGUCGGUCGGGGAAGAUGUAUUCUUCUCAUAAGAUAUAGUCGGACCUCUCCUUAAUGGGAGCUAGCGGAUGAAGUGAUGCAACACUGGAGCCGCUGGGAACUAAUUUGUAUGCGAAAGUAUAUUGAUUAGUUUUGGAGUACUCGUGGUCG
test.settings: 30 °C
measurement.type: self-splicing fitness (ln)

>>> observed_measurement("CGUCAGCAAUAUUACGGAAU")
-4.05
>>> observed_measurement("UUUUAGCAAUAUUACGAGGU")
-2.89
>>> observed_measurement("GGACAGCAAUAUUACGGGUG")
-2.51
>>> observed_measurement("CGCUAGCAAUAUUACGGAAA")
-2.34
>>> observed_measurement("GCCCAGCAAUAUUACGACUC")
-0.305
>>> observed_measurement("AGCCAGCAAUAUUACGAUGG")
-4.33
>>> observed_measurement("UCUGAGCAAUAUUACGGUAU")
-2.41
>>> observed_measurement("AGCAAGCAAUAUUACGGAUC")
-2.73
>>> observed_measurement("GGAAAGCAAUAUUACGGGCG")
-0.494
>>> observed_measurement("UUCAAGCAAUAUUACGCGUC")
-2.89
>>> observed_measurement("CUGAAGCAAUAUUACGCAAG")
-0.812
>>> observed_measurement("ACCAAGCAAUAUUACGGCAU")
-0.931
>>> observed_measurement("AGAAAGCAAUAUUACGAUCA")
0.101
>>> observed_measurement("GAUGAGCAAUAUUACGUGAG")
-2.88
>>> observed_measurement("GGUAAGCAAUAUUACGACCA")
-1.47
>>> observed_measurement("ACCGAGCAAUAUUACGAGUC")
-4.62
>>> observed_measurement("AUCUAGCAAUAUUACGUGUU")
-2.71
>>> observed_measurement("GGAUAGCAAUAUUACGGCAU")
-0.507
>>> observed_measurement("CAUGAGCAAUAUUACGGCAA")
-2.43
>>> observed_measurement("AUUCAGCAAUAUUACGAAUA")
-2.49
>>> observed_measurement("CCCUAGCAAUAUUACGCGGU")
-3.75
>>> observed_measurement("CCAGAGCAAUAUUACGGUUG")
-1.11
>>> observed_measurement("GUCUAGCAAUAUUACGUACG")
-1.29
>>> observed_measurement("AGCUAGCAAUAUUACGAUGU")
-1.79
>>> observed_measurement("AUGCAGCAAUAUUACGUGCU")
-2.52
>>> observed_measurement("UGCGAGCAAUAUUACGGCUC")
-2.91
>>> observed_measurement("UCUUAGCAAUAUUACGUGAG")
-0.751
>>> observed_measurement("CAGCAGCAAUAUUACGGGCA")
-2.11
>>> observed_measurement("CUCGAGCAAUAUUACGCGGU")
-4.23
>>> observed_measurement("CGUCAGCAAUAUUACGCCAU")
-3.87
>>> observed_measurement("GAGGAGCAAUAUUACGCGAA")
-2.67
>>> observed_measurement("UUGAAGCAAUAUUACGAUGG")
-0.452
>>> observed_measurement("UACCAGCAAUAUUACGACGA")
-0.586
>>> observed_measurement("GCUUAGCAAUAUUACGAUGA")
-0.547

This collection of values is drawn from the supplement of paper PMC7877785.
